In what follows, each item is paired with its pIC50 for PARP15 (Homo sapiens).
Answer as the number alone; pIC50 is minus log10 of concentration in mol/L.

Oc1cccc2c(O)nccc12 [1,5-Isoquinolinediol, 1,5-isoquinolinediol] :: 5.07

# next compound below
Identify the measured pIC50 of O=c1[nH]c2ccccc2c2ccccc12 [6(5H)-Phenanthridinone, 6(5H)-phenanthridinone] for PARP15 (Homo sapiens). 5.82
